B1: Hairpin Ribozyme (parent)
chain: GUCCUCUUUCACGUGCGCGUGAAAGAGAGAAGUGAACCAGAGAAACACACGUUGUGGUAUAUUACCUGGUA

- Variants of: B1
- test: self-cleavage, relative activity (ratio to wild type); higher = more cleavage; co-transcriptional
readout.name: self-cleavage
Just the number, please, no unit after it.

Solved cases (4 shown):
residue_change="C18G G51A" readout_name=self-cleavage assay_result=0.933
residue_change="C6U C16U" readout_name=self-cleavage assay_result=0.971
residue_change="G32A U33G" readout_name=self-cleavage assay_result=0.137
residue_change="C16G U63G" readout_name=self-cleavage assay_result=0.182

### Prompt I would be grateful if you could share the reported self-cleavage for C16G G21A .
### Response 0.515

### Prompt Continue with U7A A61U
### Response 0.167

### Prompt Continue with A31C C38G
### Response 0.196
